# experimental-details: yeast display, Sf9 membrane polyspecificity reagent, FACS + sequencing; frameworks hold sequencing errors
experimental-endpoint: polyreactivity (PSR sort gate)

seq-text	experimental-endpoint	observed-value
QVQLEESGGGLVQAGGSLRLSCAASGFTFGFYAMGWYRQAPGKERELVARISYSGGSTYYADSVKGRFTISRDNAKNTVYLQMNSLKPEDTAVYYCNRGYRRLQEDYWGQGTQVTVSS	polyreactivity (PSR sort gate)	high polyreactivity
QVQLVESGGGLVQAGGSLRLSCAASGRIFYLNAMGWYRQAPGKERELVAAISGSTGSTYYADSVKGRFTISRDNAKNTVYLQMNSLKPEDTAVYYCNAGGVYDEFNYWGQGTQVTVSS	polyreactivity (PSR sort gate)	low polyreactivity
QVQLVESAGGLVQAGGSLRLSCAASGFSFYYNTMGWYRQAPGTEWELVASITWSGDTTYYADSVKGRFTISRDNAKNTVYLQMNSLKPEDTAVYYCAAVPYYPYRRYDYWGQGTQVTVAS	polyreactivity (PSR sort gate)	low polyreactivity
QVQLVESGGGLVQAGGSLRLSCAASGSIFGYYAMGWYRQAPGKERELVAAITSDGSTYYADSVKGRFTITRDNAKNTVNLQMNSLKPEDTAVYYCAAYSWYYTSRYDYWGQGTQVTVSS	polyreactivity (PSR sort gate)	low polyreactivity
QVQLVESGGGLVQAGGSLRLSCAASGRIIGYYAMGWYRQAPGKERELVAAISRRGGSTYYADSVKGRFTISRDNAKNTVYLQMNSLKPEDTAVYYCATLTLESFSALYYWGQGTQVTVSS	polyreactivity (PSR sort gate)	low polyreactivity
QVQLVESGGGLDQAGGRLRLSCPASGRIFQANAMGRYRQAPGKERELVAAITNRGGSTYADSVKGRFTISRDNAKNTVYLQMNSLKPEDTAVYYCAADVSRYVQRDNYWGQGTQVTVSS	polyreactivity (PSR sort gate)	low polyreactivity

Dear colleague, could you send me polyreactivity (PSR sort gate) for each of the items below? Thanks.
1. QVQLVESGGGLVQAVGSLRLSSAASGSIFYVYAMGWYRQAPGKERELVAAMTNYADSVKGRFTISRDNAKNTVYLQMNSLKPEDTAVYYCAADWWRVEMDYWGQGTQVTVSS
2. QVQLVESGGGLVQAGGSLRLSCAASGFTFEKNAMGWYRQAPGKERELVAAISRGGSTYADSVKGRFTISRDNAKNTVYLQMNSLKPEDTAVYYCAGDTVYIFSSAINGEFGYWGQGTQVTVSS

low polyreactivity
low polyreactivity

---

# experimental-details: yeast display, Sf9 membrane polyspecificity reagent, FACS + sequencing; frameworks hold sequencing errors
experimental-endpoint: polyreactivity (PSR sort gate)

seq-text	polyreactivity (PSR sort gate)
QVQLVESGGCLVQAGGSLRLSCAASGRIIDFYTLGWYRQAPGKERELVAGINGSGASTYYADSVKGRFTISRDNAKNTVYLQMNSLKPEDTAVYYCAKDPGYYYDYDYWGQGTQVTVSS	low polyreactivity
QVQLVESGGGLVQAGGSLRLSCAASGITFTDYAMGWYRQAPGKERELVAAISSSGGRTYYADSVKGRFTISRDNAKNTVYLQMNSLKPEDTAVYYCAARDYDRTQSGRDYWGQGTQVTVSS	high polyreactivity
QVQLVESGGGLVQAGGSLRLSCAASGFTIDYYTMGWYRQAPGKERELVAAISWSGGSTYYADSVKGRFTISRDNAKNTVYLQMNSLKPEDTAVYYCAAAWSYRYELYYWGQGTQVTVSS	low polyreactivity
QVQLVESGGGLVQAGGSLRLSCAASGRTFPGNAMGWYRQAPGKERELVATISSGGTTNYADSVKGRFTISRDNAKTTVYLQMNSLKPEDTAVYYCATDTYHHKADYEYWGKGTQVTVSS	low polyreactivity
QVQLVESGGGLVQAGGSLRLICAASGSTLPGYVKGWYRQAPGKERELVAAITKSGGSTYYADSVKGRFTISRDNAKNTVYLQMNSLKPEDTAVYYCAVGVKAQIAGDYWGQGTQVTVSS	low polyreactivity
QVQLVESGGGLVQAGGSLRLSCAASGITFGGNAMGWYRQAPGKEMELVAAISWNGGRTYYADSVKGRFTISRDNAKNTVYLQMNSLKPEDTAVYYCNTPVFSKSSRKYYYWGQGTQVTVSS	high polyreactivity
QVQLVESGGGLVQAGGSLRLSCAASGSTFPSYAMGWYRQAPGKERELVAAISRRSSRTYYADSVKGRFTISRDNAKNTVYLQMNSLKPEDTAVYYCNADAGRHSDEYGYDYWGQGTQVTVSS	high polyreactivity
QVQLVESGGGLVQAGGSLRLSCAASGSIFTYYTMGLYRQAPGKERELVADITGGGSSTYYADSVKGRFTISRDNAKNTVYLQMNSLKPEDTAVYYCAADKYWAQNDYWGQGTQVTVSS	low polyreactivity

Dear colleague, could you send me polyreactivity (PSR sort gate) for each of the items below? Thanks.
1. QVQLVESGGGLVQAGGSLRLSCAASGSIFEFYTMGWYRQAPGKERELVAAITASGGSTYYADSVKGRFTISRDNAKNTVYLQMNSLKPEDTAVYYCAARFRKQSKTPSPRRYDSWGQGTQVTVSS
2. QVQLVESGGGLVQAGGSLRLSCAASGYTFRYYAMGWYRQAPGKERELVARITGRAGSTYYADSVKGRFTISRDNAKNTVYLQMNSLKPEDTAVYYCAASIREGFYWGQGTQVTVSS
3. QVQLVESGGGIDQAGGSLRLSCAATGLTFWLNPMGWYRQAPWKERELVAAIRYSGGGTYADSVKGRFTISRDNAKNTVSLQMNSLKQEVTAVYYCAALYNLGYPQFDYWGQGNQVTVSS

1: high polyreactivity; 2: high polyreactivity; 3: low polyreactivity

---

# experimental-details: yeast display, Sf9 membrane polyspecificity reagent, FACS + sequencing; frameworks hold sequencing errors
experimental-endpoint: polyreactivity (PSR sort gate)

seq-text	observed-value
QVQLVESGGGLVQAGGSLRLSCAASGRIFYNYAMGWYRQAPGKERELVASINFSGTRTYYADSVKGRFTISRDNAKNTVYLQMNSLKPEDTAVYYCAARQAHGYYYWGQGTQVTVSS	high polyreactivity
QVQLVESGGGLVQAGGSLRLSCAASGRIFWRYAMGWYRQAPGKERELVAGISASGGSTFYADSVKGRFTISRDNAKNTVYLQMNSLKPEDTAVYYCAAVSRYIWYSARESYYWGQGTQVTVSS	high polyreactivity

---

# experimental-details: yeast display, Sf9 membrane polyspecificity reagent, FACS + sequencing; frameworks hold sequencing errors
experimental-endpoint: polyreactivity (PSR sort gate)

seq-text	polyreactivity (PSR sort gate)
QVQLVESGGGLVQAGGSLRLSCAASGFIFWKYAKGWYRQAPGKERELVAAISTTGGSTYYADSVKGRFTNSRDNAKNTVYLQMNSLKPEDTAVYYCAAQVGRGYEVYPVYKYGYWGQGTQVTVSS	high polyreactivity
QVQLVESGGGLVQAGGSLRLSCAASGSIFVLYAMGWYRQAPGKERELVAAITTGGGTNYADSVKGRFTISRDNAKNTVYLQMNSLKPEDTAVYYCNADAYGTPEFTSYAVRYDYWGQGTQVTVSS	low polyreactivity
QVQLVESGGGLVQAGGSLRLSCAASGRIFRYYAMGWYRQAPGKERELVAAISSGGRTYYADSVKGRFTISRDNAKNTVYLQMNSLKPEDTAVYYCNAYAYHAGGDYWGQGTQVTVSS	high polyreactivity
QVQLVESGGGLVQAGGSLRLSCAASGLIFGYYAMGWYRQAPGKERELVAAISWSGGRTYYADSVKGRFTISRDNAKNTVYLQMNSLKPEDTAVYYCAADTYPYIGGYYWGQVTQVTVSS	high polyreactivity

Consider now this further sequence.
Fill in polyreactivity (PSR sort gate) for record QVQLEESGGGLVQAGGSLRLSCAASGRIFTYYGMGWYRQAPGKERELVAAITRSGGSTRYADSVKGRFTISRDNAKNTVYLQMNSLKPEDTAVYFCAKTHYGVQRLDSCGQGTQVTVSS
low polyreactivity

---

# experimental-details: yeast display, Sf9 membrane polyspecificity reagent, FACS + sequencing; frameworks hold sequencing errors
experimental-endpoint: polyreactivity (PSR sort gate)

Observe how each entry below is paired with its result.
seq-text	polyreactivity (PSR sort gate)
QVQLVESGGGLVQAGGSLRLSSAASRRIFSEYAMGWNRPEPGKERELVAAISKSGGRTYYADSVKGRFTISRDNAKNTVYFQMNSLKPEETAVDYCNARAVYPAGYAYDYWGQGTQVTVSS	high polyreactivity
QVQLVESGGGLVQAGGSLRLSCAASGRTSRQYAMGWYRQAPGKEREFVAAITWSDSGTYYADSVKGRFTISRDNAKNTVYLQMNSLKPEDTAVYYCAAERYLSFDRYLYEYYYWGQGTQVTVSS	low polyreactivity
HVQHVESGGGLVQAGGSLRLSCAASGFTFFYYTMGWYRQAPGKERELVAAISKGGGSTFYADSVKGRFTISRDNAKNTVYLQMNSLKPEDTAVYYCAASYVRGYDYWGQGTQVTVSS	high polyreactivity
QVQLVESGGGLVQAGGSLRLSCAASGSIFNSYAMGWYRQAPGKERELVAAITRSDGSTYYADSVKGRFTISRDKAKNTVYLQMNSLKPEDTAVYYCAKGVGGYIYSEYDYWGQGTQVTVSS	low polyreactivity
QVQLVESGGGLVQAGGSLRLSCAASGRIFYINAMGWYRQAPGTERELVAAITEGGVSTYYADSVKGRFTSSRDNAKNTVYLQMNSLKPEDTAVYYCNTTGGPDGIVIYEYWGQGTQVTVSS	low polyreactivity
QVQLVESGGGLVQAGGSLRLSCAASGGTFLGYAMGWYRQAPGKDRELVAAIAASGGNTYYADSVKGRFTISRDNAKNTVYLQMNSLKPEATAVYYGAARQYRSVLKYDYWGQGTQVTVSS	high polyreactivity
QVQLVESVGGLVQAGGSLRLSCAASGFTFKYYAMGWYRQAPGKERELVAAITGTGGSTYYADSVKGRFTISRDTAKNTVYLLMNSLKPEDTAVYYCNAGSARGYVPYDSFAYDYWGQGTQVTVSS	low polyreactivity
QVQLVESGGGLVQAGGSLRLSCAASGSISDWNAMGWYRQAPGKERELVAAINWSGDTTYYADSVKGRFTFSRDNSKNTVYLQMNSLKPEDTAVYYCAAYLVVDYDWYDYWGQGTQVTVSS	high polyreactivity
QVQLVESGGGLVQAGGSLRLSCASSGSTFWFYAMGWYRQAPGKERELVAAITRSAGSTYYADSVKGRFTISRDNAKNTVYLQMNSLKPEGTAVYYCAAQRESLYGGFDYWGQGTQVTVSS	low polyreactivity
QVQVVESGGGLVQAGGSLRLSCAASGLISWLYVMGWYRQAPGKERELVAAIRYSGGRTYYADSVKGRFTISRDNAKNTDYLQMHSLKPEDTAVYYCNALPWALYDSTSIYYYWGQGTQVTVSS	low polyreactivity

Fill in polyreactivity (PSR sort gate) for record QVQLVESGGGIVQAGGSLRLSCAASGRTLGGYAMGWYRQAPGKERELVAAITRRGGSTYYADSVKGRFTISRDNAKNTVYLQMNSLKPEDTAVYYCAARWYARSLTRFNYWGQGTQVTVSS
high polyreactivity
